# credit: the supplement of paper PMC7645387

Kindly supply the reported growth inhibition values for the records listed here.
# Tested on: HDFB
# procedure_details: growth inhibition relative to DMSO control (fraction); higher = stronger growth inhibition
# test_context: GSK-LSD1 concentration 10 nM; partner concentration 10000 nM; treatment time: 6 days
Reply: number alone, nothing else.

What reported growth inhibition corresponds to c1ccc([C@@H]2C[C@H]2NC2CCNCC2)cc1 [GSK-LSD1] + Nc1ccccc1NC(=O)c1ccc(CNC(=O)OCc2cccnc2)cc1 [Entinostat] on HDFB?
0.947

What reported growth inhibition corresponds to c1ccc([C@@H]2C[C@H]2NC2CCNCC2)cc1 [GSK-LSD1] + Cc1cc2c(cc1N1C(=O)c3cccc4c(CCCO)ccc(c34)C1=O)n(C)c(=O)n2C [BAY299] on HDFB?
0.727

What reported growth inhibition corresponds to c1ccc([C@@H]2C[C@H]2NC2CCNCC2)cc1 [GSK-LSD1] + CCOC(=O)NCCCC(=O)NCCc1ccccc1 [Santacruzamate A] on HDFB?
0.0944

###

Kindly supply the reported growth inhibition values for the records listed here.
# Test system: MKL-1
# procedure_details: growth inhibition relative to DMSO control (fraction); higher = stronger growth inhibition
# test_context: GSK-LSD1 concentration 10 nM; partner concentration 1000 nM; treatment time: 6 days
Reply: number alone, nothing else.

Dear colleague, I am looking for the recorded growth inhibition of the following compound: c1ccc([C@@H]2C[C@H]2NC2CCNCC2)cc1 [GSK-LSD1] + CCOC(=O)NCCCC(=O)NCCc1ccccc1 [Santacruzamate A]
0.242

Dear colleague, I am looking for the recorded growth inhibition of the following compound: c1ccc([C@@H]2C[C@H]2NC2CCNCC2)cc1 [GSK-LSD1] + Cc1cc2c(cc1N1C(=O)c3cccc4c(CCCO)ccc(c34)C1=O)n(C)c(=O)n2C [BAY299]
0.972

Dear colleague, I am looking for the recorded growth inhibition of the following compound: c1ccc([C@@H]2C[C@H]2NC2CCNCC2)cc1 [GSK-LSD1] + CN1CCN(c2ccc(-c3cccc(CN4CCOCC4)c3)cc2NC(=O)c2c[nH]c(=O)cc2C(F)(F)F)CC1 [OICR9429]
0.398

Dear colleague, I am looking for the recorded growth inhibition of the following compound: c1ccc([C@@H]2C[C@H]2NC2CCNCC2)cc1 [GSK-LSD1] + Cc1sc2c(c1C)C(c1ccc(Cl)cc1)=N[C@@H](CC(=O)OC(C)(C)C)c1nnc(C)n1-2 [(+)-JQ1]
0.999

Dear colleague, I am looking for the recorded growth inhibition of the following compound: c1ccc([C@@H]2C[C@H]2NC2CCNCC2)cc1 [GSK-LSD1] + O=C(NC[C@H](O)CN1CCc2ccccc2C1)c1ccnc(NC2CCC2)c1 [GSK591]
0.773

Dear colleague, I am looking for the recorded growth inhibition of the following compound: c1ccc([C@@H]2C[C@H]2NC2CCNCC2)cc1 [GSK-LSD1] + Nc1ccccc1NC(=O)c1ccc(CNC(=O)OCc2cccnc2)cc1 [Entinostat]
1

###

Kindly supply the reported growth inhibition values for the records listed here.
# Test system: MKL-1
# procedure_details: growth inhibition relative to DMSO control (fraction); higher = stronger growth inhibition
# test_context: GSK-LSD1 concentration 10 nM; partner concentration 10 nM; treatment time: 6 days
Reply: number alone, nothing else.

Dear colleague, I am looking for the recorded growth inhibition of the following compound: c1ccc([C@@H]2C[C@H]2NC2CCNCC2)cc1 [GSK-LSD1] + Cc1cc2c(cc1N1C(=O)c3cccc4c(CCCO)ccc(c34)C1=O)n(C)c(=O)n2C [BAY299]
0.457

Dear colleague, I am looking for the recorded growth inhibition of the following compound: c1ccc([C@@H]2C[C@H]2NC2CCNCC2)cc1 [GSK-LSD1] + O=C(NC[C@H](O)CN1CCc2ccccc2C1)c1ccnc(NC2CCC2)c1 [GSK591]
0.536

Dear colleague, I am looking for the recorded growth inhibition of the following compound: c1ccc([C@@H]2C[C@H]2NC2CCNCC2)cc1 [GSK-LSD1] + Cc1sc2c(c1C)C(c1ccc(Cl)cc1)=N[C@@H](CC(=O)OC(C)(C)C)c1nnc(C)n1-2 [(+)-JQ1]
0.364

Dear colleague, I am looking for the recorded growth inhibition of the following compound: c1ccc([C@@H]2C[C@H]2NC2CCNCC2)cc1 [GSK-LSD1] + CCOC(=O)NCCCC(=O)NCCc1ccccc1 [Santacruzamate A]
0.298

Dear colleague, I am looking for the recorded growth inhibition of the following compound: c1ccc([C@@H]2C[C@H]2NC2CCNCC2)cc1 [GSK-LSD1] + Nc1ccccc1NC(=O)c1ccc(CNC(=O)OCc2cccnc2)cc1 [Entinostat]
0.441

Dear colleague, I am looking for the recorded growth inhibition of the following compound: c1ccc([C@@H]2C[C@H]2NC2CCNCC2)cc1 [GSK-LSD1] + CN1CCN(c2ccc(-c3cccc(CN4CCOCC4)c3)cc2NC(=O)c2c[nH]c(=O)cc2C(F)(F)F)CC1 [OICR9429]
0.381
